Readings of hepatic extraction ratio for the listed molecules
Experiment: Clearance in human liver microsomes assessed as extraction ratio
Format: ADME
Conditions: read-out: ERH
Answer as a number with no unit attached.

• OCc1nn2c3c(cnc2c1-c1ccc(C(F)(F)F)cc1)CN[C@]3(Cc1cccc(F)c1)C1CC1 = 0.9

// lookup hepatic extraction ratio for COC(=O)C1(Cc2ccccc2)CCc2cnc3c(-c4ccc(C(F)(F)F)cc4)cnn3c21 (racemic)
0.93

###

Target: Glucose-dependent insulinotropic receptor (Homo sapiens) (UniProt Q8TDV5)
Sequence (whole entry): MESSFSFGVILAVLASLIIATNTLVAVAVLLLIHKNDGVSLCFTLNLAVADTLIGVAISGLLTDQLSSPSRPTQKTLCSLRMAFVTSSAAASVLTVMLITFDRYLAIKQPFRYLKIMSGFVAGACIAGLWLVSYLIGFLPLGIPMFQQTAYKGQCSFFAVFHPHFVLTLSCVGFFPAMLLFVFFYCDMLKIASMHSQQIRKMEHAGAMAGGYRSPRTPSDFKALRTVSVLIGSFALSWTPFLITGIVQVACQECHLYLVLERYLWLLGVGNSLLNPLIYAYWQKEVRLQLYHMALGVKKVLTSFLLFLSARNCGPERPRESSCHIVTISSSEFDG
Assay: Agonist activity at human GPR119 overexpressed in CHO cells assessed as increase in cellular cAMP production by HTRF method relative to AR231453
Type: functional, cell-based
measurement_type: Efficacy (%)
# output: bare number, implied unit %

Examples with answers:
- COC(=O)C1(Cc2ccccc2)COc2cnc3c(-c4ccc(C(F)(F)F)cc4)cnn3c21 (racemic): 83
- CCOC(=O)[C@@]1(Cc2ccccc2)CCc2cnc3c(-c4ccc(C(F)(F)F)cc4)cnn3c21: 85
- OCc1nn2c3c(cnc2c1-c1ccc(C(F)(F)F)cc1)CN[C@]3(Cc1cccc(F)c1)C1CC1: 88

Proceed to the following item.
What value of measured Efficacy is listed for CCOC(=O)C1(Cc2ccccc2)CCc2cnc3c(-c4ccc(Oc5ccccc5)cc4)cnn3c21 (racemic) ?
60

The reported numbers originate from ChEMBL document CHEMBL3351405.
